STUDY SYSTEM: UniProt P63146
MEASURED PROPERTY: IC50 (µM)
Please give a number only; it is taken to be in µM.

| COMPOUND | U | IC50 |
| --- | --- | --- |
| O=c1cc2oc3cc(O)c(O)cc3c(-c3ccccc3O)c-2cc1O [NSC 9037] | µM | 8.9 |

Okay, next one:
stdin: Give me measured IC50, please, for this compound: CN(C)c1ccc(-c2c3cc(O)c(=O)cc-3oc3cc(O)c(O)cc23)cc1 [NSC 80693]
stdout: 91.8

---

Reported pIC50 values for the following molecules.
STUDY SYSTEM: Rad6–Rad18 interaction (Homo sapiens, UniProt P63146)
Sequence (P63146 whole entry): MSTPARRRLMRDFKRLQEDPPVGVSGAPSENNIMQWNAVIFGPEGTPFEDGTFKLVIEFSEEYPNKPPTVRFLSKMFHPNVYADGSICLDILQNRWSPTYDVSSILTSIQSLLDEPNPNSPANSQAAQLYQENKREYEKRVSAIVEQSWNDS
METHOD: Rad6–Rad18 interaction Alpha assay
Reminder that pIC50 is minus the log10 of a molar concentration.

| COMPOUND SMILES | pIC50 |
| --- | --- |
| O=c1cc2oc3cc(O)c(O)cc3c(-c3ccccc3O)c-2cc1O | 5.21 |

Okay, next one:
stdin: Give me measured pIC50, please, for this molecule: CN(C)c1ccc(-c2c3cc(O)c(=O)cc-3oc3cc(O)c(O)cc23)cc1
stdout: 4.84

---

STUDY SYSTEM: Uba1 (Homo sapiens, UniProt P22314)
Sequence (P22314 1-1058): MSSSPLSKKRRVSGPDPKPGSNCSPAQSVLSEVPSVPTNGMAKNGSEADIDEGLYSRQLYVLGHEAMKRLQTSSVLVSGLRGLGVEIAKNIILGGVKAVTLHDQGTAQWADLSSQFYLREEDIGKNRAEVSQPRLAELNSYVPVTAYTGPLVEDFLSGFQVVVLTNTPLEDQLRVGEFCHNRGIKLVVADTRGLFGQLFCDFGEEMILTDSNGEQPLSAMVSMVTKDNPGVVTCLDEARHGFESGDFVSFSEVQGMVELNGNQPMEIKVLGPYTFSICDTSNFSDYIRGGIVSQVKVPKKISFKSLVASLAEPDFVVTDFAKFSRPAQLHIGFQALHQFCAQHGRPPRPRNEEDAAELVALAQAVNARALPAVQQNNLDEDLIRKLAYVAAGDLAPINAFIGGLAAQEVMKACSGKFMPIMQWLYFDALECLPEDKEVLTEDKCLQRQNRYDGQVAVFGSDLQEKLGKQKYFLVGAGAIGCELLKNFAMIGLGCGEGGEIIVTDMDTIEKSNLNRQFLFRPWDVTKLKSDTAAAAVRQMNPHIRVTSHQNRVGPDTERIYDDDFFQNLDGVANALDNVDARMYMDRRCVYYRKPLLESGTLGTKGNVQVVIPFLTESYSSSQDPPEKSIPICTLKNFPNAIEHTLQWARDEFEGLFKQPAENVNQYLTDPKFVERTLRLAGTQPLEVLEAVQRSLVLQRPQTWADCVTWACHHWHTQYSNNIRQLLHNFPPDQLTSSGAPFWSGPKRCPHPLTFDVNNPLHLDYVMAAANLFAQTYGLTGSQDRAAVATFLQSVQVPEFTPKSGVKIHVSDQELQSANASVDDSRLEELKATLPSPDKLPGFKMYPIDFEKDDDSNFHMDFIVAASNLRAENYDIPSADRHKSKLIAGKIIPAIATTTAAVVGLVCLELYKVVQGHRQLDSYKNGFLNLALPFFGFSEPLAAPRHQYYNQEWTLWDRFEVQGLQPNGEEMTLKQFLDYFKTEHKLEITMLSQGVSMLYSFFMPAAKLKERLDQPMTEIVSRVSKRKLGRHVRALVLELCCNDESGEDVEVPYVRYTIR
METHOD: Uba1∼ubiquitin thioester formation Alpha assay
Assay type: biochemical
Reported IC50 values for the following compounds.

Worked examples, 2 compounds total:
| COMPOUND | IC50 |
| --- | --- |
| O=c1cc2oc3cc(O)c(O)cc3c(-c3ccccc3O)c-2cc1O [NSC 9037] | > 100 µM |
| O=C(O)c1ccc(-c2c3ccc(=O)cc-3oc3cc(O)ccc23)cc1 [NSC 119891] | > 100 µM |

stdin: Give me measured IC50, please, for this compound: COc1ccc(C2c3cc(O)c(OC)cc3Oc3cc(OC)c(O)cc32)cc1 [NSC 348718]
stdout: > 100 µM

stdin: Give me measured IC50, please, for this compound: CN(C)c1ccc(-c2c3cc(O)c(=O)cc-3oc3cc(O)c(O)cc23)cc1 [NSC 80693]
stdout: > 100 µM

stdin: Give me measured IC50, please, for this compound: O=C(O)C1CC=CCC1c1c2ccc(=O)cc-2oc2cc(O)ccc12 (stereo not shown) [NSC 157411]
stdout: 24.8 µM

stdin: Give me measured IC50, please, for this compound: Cc1cc2c(-c3ccccc3)c3cc(C)c(N)cc3nc2cc1N [NSC 71947]
stdout: > 100 µM

stdin: Give me measured IC50, please, for this compound: O=C(O)c1cccc(-c2c3ccc(=O)cc-3oc3cc(O)ccc23)c1 [NSC 119888]
stdout: 53.8 µM
